Reported values of TGI for individual entries
System: RPMI-8226 leukemia
test description: NCI tumour cell line growth inhibition, 48 h

Would you please look over these solved cases?
| compound | TGI |
| --- | --- |
| O=C(CC(C(=O)c1ccc(F)cc1)c1ccsc1)c1cccs1 (stereo not drawn) | > 100 µM |
| C(=Nc1ccccc1C1SCCCS1)c1ccccc1 | > 100 µM |

Kindly review the next compound as well.
Quote TGI reported for `Cc1ccc(S(=O)(=O)CC(=O)CC(=O)C(=O)Nc2cccc(C(F)(F)F)c2)cc1` please.
> 100 µM

---

TGI listing for selected compounds.
Test system: ACHN renal
test description: NCI tumour cell line growth inhibition, 48 h

Please review the following examples before continuing.
| compound | TGI |
| --- | --- |
| S=C(S)N1CCOCC1 | > 100 µM |
| Cn1nc(-c2ccccc2)c(C(=O)/C=C/c2ccc(F)cc2)c(N2CCCC2)c1=O | 62.8 µM |

Give the observed TGI of COc1ccc(N[C@H]([C@@H](c2ccccc2)S(=O)c2ccc(C)cc2)C(F)(F)F)cc1 (stereo partly drawn) for ACHN renal.
> 100 µM

---

Test system: SK-MEL-28 melanoma
test description: NCI tumour cell line growth inhibition, 48 h
Readings of TGI for the listed molecules

Record excerpt, results attached:
| molecule | readout | result value |
| --- | --- | --- |
| CCn1c2ccccc2c2nnc(NCCCO)nc21 | TGI | > 100 µM |
| Cc1[nH]c(-c2ccccc2)c(O)c1C(=O)OC12CC3CC(CC(C3)C1)C2 | TGI | 27.8 µM |
| CC(C)(C)OC(=O)NC(Cc1ccc(OCc2ccccc2)cc1)C(=O)NC(COCc1ccccc1)C(=O)Oc1c(Cl)c(Cl)c(Cl)c(Cl)c1Cl (configuration not stated) | TGI | 71.8 µM |

Quote TGI with test system SK-MEL-28 melanoma for `Cc1ccc(N=Nc2c(C)nn(-c3ccccc3)c2-c2ccccc2)c(Br)c1`
> 100 µM

GET TGI | system: SK-MEL-28 melanoma | item: `CC(=O)O[C@H]1CC[C@]2(C)[C@H]3CC=C4[C@@H]5CC(C)(C)CC[C@]5(C(=O)NCCNCCNCCN)CC[C@@]4(C)[C@]3(C)CC[C@H]2C1(C)C`
3.21 µM

Jot down TGI (SK-MEL-28 melanoma) of O=C(OCc1ccccc1)N1N=NC2C1C1CC(OCc3ccccc3)(OCc3ccccc3)C2O1 (configuration not stated) .
> 100 µM

Look up and report TGI, with SK-MEL-28 melanoma as system, for `CCOC(=O)C1=C(C)N=C2SC=C(c3ccccc3)N2[C@H]1c1cn[nH]c1-c1ccc(Cl)cc1`
16.8 µM

---

Tested on: SR leukemia
test description: NCI tumour cell line growth inhibition, 48 h
Listed molecules paired with reported TGI

Example entries begin here.
| molecule | readout | result value |
| --- | --- | --- |
| CC(C)Oc1c(N(Cc2ccccc2)c2ccccc2C2SCCCS2)c(=O)c1=O | TGI | > 100 µM |
| CCOC(=O)/C(=N/Nc1ccc(C)cc1)N1C(=S)C=C(C)NN(C)C1=S | TGI | > 100 µM |
| CCOc1ccccc1N1CSc2nnc(-c3ccccc3)n2C1 | TGI | > 100 µM |

Give me measured TGI, please, for this molecule: `S=c1sc2c(s1)SCc1cccc(n1)CSc1sc(=S)sc1SCc1cccc(n1)CS2`
> 100 µM

Please supply the value of reported TGI for the item `Cc1ccc(N=Nc2c(C)nn(-c3ccccc3)c2-c2ccccc2)c(Br)c1`
> 100 µM

For COP(=O)(CC(=O)C1OC(C)(C)OC1C(O)COCc1ccccc1)OC (configuration not stated) , write its TGI.
> 100 µM

For `COc1cc2c3c(n(CCCn4ccnc4)c(=O)c2cc1OC)-c1cc2c(cc1C3=O)OCO2` , write its TGI.
< 0.01 µM

Look up and state reported TGI for CC(C)(C)OC(=O)NC(Cc1ccc(OCc2ccccc2)cc1)C(=O)NC(COCc1ccccc1)C(=O)Oc1c(Cl)c(Cl)c(Cl)c(Cl)c1Cl (configuration not stated)
> 100 µM
